The measurements presented in this section are drawn from patent US20160017016A1.

# Target or system: human glucagon receptor (GCGR) (human, UniProt P47871 26-477)
# Sequence (P47871 26-477): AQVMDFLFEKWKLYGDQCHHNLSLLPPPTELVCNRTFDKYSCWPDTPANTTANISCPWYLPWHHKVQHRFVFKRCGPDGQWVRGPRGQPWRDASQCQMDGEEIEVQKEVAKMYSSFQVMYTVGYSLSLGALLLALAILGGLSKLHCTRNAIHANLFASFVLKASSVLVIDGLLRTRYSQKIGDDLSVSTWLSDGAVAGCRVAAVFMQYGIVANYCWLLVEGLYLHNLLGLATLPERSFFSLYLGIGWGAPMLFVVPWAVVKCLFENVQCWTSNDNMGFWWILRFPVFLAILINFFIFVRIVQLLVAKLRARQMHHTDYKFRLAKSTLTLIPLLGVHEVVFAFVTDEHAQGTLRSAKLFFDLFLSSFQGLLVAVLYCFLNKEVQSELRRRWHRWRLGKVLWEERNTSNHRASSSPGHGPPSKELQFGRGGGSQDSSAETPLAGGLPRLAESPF
# Assay notes: cell-based or functional assay
*1 amine or outer side, *2 acyl side, *3 side chain or, on linkers, in order; H or OH if unused. Primed or numbered codes have the meaning given here. Where no end group is shown, it is not given here. Side-chain parts run from the residue outwards. [ ]: non-standard residue; d: D form. The star is where a group is joined. PEG4′ = 4 PEG units (K(PEGxpalm): Lys with x PEG units and palmitoyl at epsilon N, C-terminal (PEG)4); γGlu = O=C(O)[C@H](CCC(=O)[*:2])N[*:1]; Palmitoyl = CCCCCCCCCCCCCCCC(=O)*; PEG12′ = not defined here; Aib = CC(C)(N)C(=O)O; PEG2′ = 2 PEG units
Class field: derived from cAMP activity, Glcg EC50 nM; ranges low = under 0.004 nM, mid = from 0.004 nM up to 0.03 nM, high = 0.03 nM and over

Binder	Group label
HSQGTFTSDYSKYLDSK([γGlu-Palmitoyl])RAQDFVQWEV[PEG4′] [g458]	high
HSQGTFTSDYSKYLDSK([PEG4′-γGlu-Palmitoyl])RARDFVAWLE[PEG2′] [g967]	mid
HGQGTFTSDYSKYLDSXRAQDFVQWLV (K(gE-palm) at 17; C-terminal PEG3) [g690]	high
HSQGTFTSDYSKYLDSK([γGlu-Palmitoyl])RAQRDFVAWLV[PEG12′] (not fully specified; printed as HSQGTFTSDYSKYLDSBRAQRDFVAWLVZ12) [g828]	mid
HSQGTFTSDYSKYLDSRRAXDFVQWLV (K(gE-palm) at 20; C-terminal PEG4) [g456]	high
HGQGTFTSDYSEYLDSK([γGlu-Palmitoyl])RAQDFVQWLV[PEG4′] [g695]	high
HSQGTFTSDYSKYLDSXRAQDFVQWLV (not fully specified; K(PEG4-palm) at 17; C-terminal PEG2) [g437]	low
HSQGTFTSDYSKYLDSXRAQDFVQWLE (K(PEG3-palm) at 17; C-terminal PEG4) [g503]	low
HSQGTFTSDYSKYLDSK([PEG4′-Palmitoyl])RAQDFVQWEV[PEG4′] [g459]	high
HSQGTFTSDYSKYLDK([PEG4′-Palmitoyl])RRAQDFVQWLE[PEG4′] [g495]	low
HSQGTFTSDYSEYLDSK([γGlu-Palmitoyl])RAADFVQWLV[PEG4′] (not fully specified; printed as HSQGTFTSDYSEYLDSBRAADFVQWLVZ4) [g775]	high
H[Aib]QGTFTSDYSKYK([γGlu-Palmitoyl])DSERARDFVAWLV[PEG4′] [g868]	mid
HSQGTFTSDYSKYLDSXRAQDFVQWLV (not fully specified; K(PEG4-gE-palm) at 17; C-terminal PEG4) [g964]	low
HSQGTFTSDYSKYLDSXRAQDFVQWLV (not fully specified; K(PEG2-palm) at 17; C-terminal PEG4) [g435]	low
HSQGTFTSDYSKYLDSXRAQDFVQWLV (K(PEG3-palm) at 17; C-terminal PEG4) [g434]	mid
HSQGTFTSDYSKYK([γGlu-Palmitoyl])DEERAQDFVQWLV[PEG4′] [g807]	mid
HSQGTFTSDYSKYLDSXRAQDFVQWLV (not fully specified; K(PEG4-palm) at 17; C-terminal PEG12) [g440]	low
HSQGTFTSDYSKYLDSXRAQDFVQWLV (not fully specified; K(PEG4-palm) at 17; C-terminal PEG8) [g439]	low
HGQGTFTSDYSKYLDSEK([γGlu-Palmitoyl])ARDFVAWLV[PEG4′] [g735]	high
